Ref: PubChem BioAssay (NCATS)

Experiment: NS1 protein of Zika virus - qHTS assay to identify small molecule inhibitors in human HEK 293 cells (AID 1347053); note: nearly all actives have a fitted effect of over 55% in size
Details: HEK293 ZIKV MR766 infection, NS1 TR-FRET, 24 h; series mostly up to 46.1 µM
Records with an inconclusive call do not appear. Calls of active or inactive are those of the source. Calls come from the whole dose curve; as a rule, active = well fitted inhibition curve with a large enough effect; inconclusive = small, poorly fitted or top-dose-only effect; inactive = no such curve, though single readings can be large or run the other way.
Parameter call: string, one of T = active, F = inactive

Example results:
compound	label_value
Cn1c(=O)c2[nH]c(-c3ccccc3)nc2n(C)c1=O	F
Brc1c(Br)c(Br)c2n[nH]nc2c1Br	F
CCN(CC)c1ncnc2c1ncn2[C@@H]1O[C@H](COP(=O)(O)OP(=O)(O)C(Br)(Br)P(=O)(O)O)[C@@H](O)[C@H]1O	F
CC12C(=O)OC(=O)C1(C)C1CCC2O1 (stereo unspecified)	T
CN1CCc2ccccc2Cc2[nH]c3ccccc3c2CC1	F

Entry O=[N+]([O-])c1ccc(CSc2ncnc3c2ncn3[C@@H]2O[C@H](CO)[C@@H](O)[C@H]2O)cc1 : call = ?
F

Entry Cc1ccc2c(n1)Oc1ccc(C(C)C(=O)OCC(=O)N(C)C)cc1C2 (stereo unspecified) : call = ?
F

Entry c1cnc2c(c1)ccc1cccnc12 : call = ?
T

Entry CC(C)NC[C@@H](O)c1ccc(O)c(O)c1 : call = ?
F

Entry O=C(O)c1cc([N+](=O)[O-])ccc1NCCCc1ccccc1 : call = ?
F

Entry CNc1ncnc2c1ncn2[C@@H]1O[C@H](CO)[C@@H](O)[C@H]1O : call = ?
F

Entry Nc1nc2ccc(Cl)cc2n2c(-c3ccccc3)nnc12 : call = ?
F

Entry NCCSSCCN : call = ?
F

Entry CCCCCCCCCCCCCCCCCC(=O)O : call = ?
F

Entry Fc1cccc(/C=N/N=C/c2cccc(F)c2)c1 : call = ?
F

Entry O=C(c1ccc(Cl)cc1)N1CCN(c2ccc([N+](=O)[O-])c3ncccc23)CC1 : call = ?
F

###

Test system: TAB113
Assay: qHTS profiling for inhibitors of Plasmodium falciparum proliferation (AID 504749); note: nearly all actives have a fitted effect of over 60% in size
Settings: P. falciparum in erythrocytes, SYBR Green DNA, 72 h; series mostly up to 28.7 µM
Records with an inconclusive call do not appear. Activity calls are given as the source filed them. The call rests on the fitted dose curve; in most records, active means well fitted inhibition curve with a large enough effect; inconclusive means small, poorly fitted or top-dose-only effect; inactive means flat fitted curve, though single readings scatter.
Parameter call: string, one of active, inactive

Example results:
compound	assayed_target	label_value
C#C[C@]1(O)CC[C@H]2[C@@H]3CCc4cc(O)ccc4[C@H]3CC[C@@]21C	TAB113	inactive
CCCCC[C@H](O)/C=C/[C@@H]1[C@@H](C/C=C\CCCC(=O)O)[C@@H](O)C[C@H]1O	TAB113	inactive
CN1CCN(c2cc3c(nn2)Oc2ccccc2N3C)CC1	TAB113	inactive
O=C(O)COc1ccc(C(=O)c2cccs2)c(Cl)c1Cl	TAB113	inactive
CCCCCCCCCCCCCCCCCC(=O)O	TAB113	inactive

Entry CC(=O)[C@]1(O)Cc2c(O)c3c(c(O)c2[C@@H](O[C@H]2C[C@H](N)[C@H](O)[C@H](C)O2)C1)C(=O)c1c(O)cccc1C3=O : call = ?
active

Entry Nc1ccc(O)c(C(=O)O)c1 : call = ?
inactive

###

Test system: CP335
Test: qHTS profiling for inhibitors of Plasmodium falciparum proliferation (AID 504749); note: nearly all actives have a fitted effect of over 60% in size; note: potency is the fitted concentration of half-maximal effect
Details: P. falciparum in erythrocytes, SYBR Green DNA, 72 h; series mostly up to 28.7 µM
Inconclusive results are not listed. Activity calls are given as the source filed them. Calls follow the shape of the dose curve; as a rule, active = well fitted inhibition curve with a large enough effect; inconclusive = small, poorly fitted or top-dose-only effect; inactive = flat fitted curve, though single readings scatter.
assay_readout: Potency

CC(=O)[C@]1(O)Cc2c(O)c3c(c(O)c2[C@@H](O[C@H]2C[C@H](N)[C@H](O)[C@H](C)O2)C1)C(=O)c1c(O)cccc1C3=O 5.36 µM (active)
CC1(C)[C@@H](O)CC[C@]2(C)[C@H]3C(=O)C=C4[C@@H]5C[C@@](C)(C(=O)O)CC[C@]5(C)CC[C@@]4(C)[C@]3(C)CC[C@@H]12 inactive
c1ccc2sc(SSc3nc4ccccc4s3)nc2c1 inactive
